Test system: rice
Assay notes: Test C flooded paddy test
Format: in vivo, Oryza sativa
Experimental parameters: 500 g ai/ha, visual rating after 12 to 14 days, scale 0 to 100 (0 no effect, 100 complete control)
Readout: Plant response rating, Rice
Lab note: jot the number down without any unit.

CCN1CCc2c(NC(=O)c3cc(C(C)(C)C)nn3CC)cccc2C1=O: 50

Consider the molecule shown here: CCOC(=O)c1cc(NC(=O)c2cc(C(C)(C)C)nn2CC)c(F)cc1OC What is its recorded Plant response rating, Rice?
90

Now the molecule CCn1nc(C(C)(C)C)cc1C(=O)Nc1ccc(OC)c(C(=O)OC(C)C)c1
25

Query CCOC(=O)c1cc(NC(=O)c2cc(C(C)(C)C)nn2CC)ccc1OCC next
65

Another: CCOC(=O)c1cccc(NC(=O)c2cc(C3(C)CC3)nn2CC)c1
40

Moving on to CCn1nc(C(C)(C)C)cc1C(=O)Nc1cccc(C(=O)NCC2CC2)c1
65

---

Test system: large crabgrass
Assay notes: Test B pre-/postemergence herbicide test
Format: in vivo, Digitaria sanguinalis
Experimental parameters: 500 g ai/ha; visual rating 0-100, 0 no effect, 100 complete control; preemergence
Readout: Plant response rating, Crabgrass, Large
Returns: the value as a bare number; no unit string appended.

Some compounds with known Plant response rating, Crabgrass, Large results, for comparison:
CCOc1cccc(NC(=O)c2cc(C(C)(C)C)nn2CC)c1 [Compound 136]: 100
CON=C(C)c1cccc(NC(=O)c2cc(C(C)(C)C)nn2C)c1 [Compound 106]: 100
CC(=NO)c1cccc(NC(=O)c2nn(C(C)(C)C)cc2C(F)(F)F)c1 [Compound 171]: 30
CCn1nc(C(C)(C)C)cc1C(=O)Nc1ccc(OC)c(C(=O)OC(C)C)c1 [Compound 101]: 90
CCOC(=O)c1cccc(NC(=O)c2sc(C(C)(C)C)nc2CC)c1 [Compound 204]: 0

Find Plant response rating, Crabgrass, Large (large crabgrass) for the entry CC(C)(C)c1cc(C(=O)Nc2cccc(SC(F)(F)F)c2)n(CCF)n1 [Compound 132]
100

---

Test system: barnyardgrass
Assay notes: Test A pre-/postemergence herbicide test
Assay type: in vivo, Echinochloa crus-galli
Experimental parameters: Preemergence, 2000 g ai/ha; visual rating, 0 to 100 scale (0 no effect, 100 complete control)
compounds and their reported Barnyardgrass plant response rating

CC(=NO)c1cccc(NC(=O)c2cc(C(F)(F)F)nn2C)c1 [Compound 103]: 85
CCc1nc(C(C)(C)C)sc1C(=O)Nc1cccc(C(=O)NCC2CC2)c1 [Compound 212]: 85
CCc1nc(C(C)(C)C)sc1C(=O)Nc1cccc(C(=O)NC(C)(C)C)n1 [Compound 216]: 35
C#CCNC(=O)c1cc(NC(=O)c2cc(C(C)(C)C)nn2CC)ccn1 [Compound 283]: 30
CCNC(=O)c1ccc(F)c(NC(=O)c2cc(C3(C)CC3)nn2CC)c1 [Compound 300]: 100
C#CCNC(=O)c1cccc(NC(=O)c2sc(C(C)(C)C)nc2CC)c1 [Compound 319]: 80
CC(=O)c1cccc(NC(=O)c2sc(C(C)(C)C)nc2C)c1 [Compound 196]: 55
CCn1nc(C(C)(C)C)cc1C(=O)Nc1nc(C(=O)N2CC=CC2)ccc1F [Compound 281]: 75

# query: Barnyardgrass plant response rating | item CCNC(=O)c1cccc(NC(=O)c2nn(C3CCCC3)nc2CC)c1 [Compound 356] | system: barnyardgrass
45

Queued: CCn1nc(C(C)(C)C)cc1C(=O)Nc1ccnc(C(=O)N2CC=CC2)c1 [Compound 282]
75

---

System: corn
Assay notes: Test B pre-/postemergence herbicide test
Assay type: in vivo, Zea mays
Experimental parameters: postemergence, 500 g ai/ha; scale 0 to 100, 0 is no effect, 100 is complete control
Readout: Corn plant response rating
Give your answer as a number; write no unit.

// solved cases for Corn plant response rating follow
CCNC(=O)c1cncc(NC(=O)c2cc(C(C)(C)C)nn2CC)c1 [Compound 259]: 20
CCN(CC)C(=O)c1cccc(NC(=O)c2cc(C(C)(C)C)nn2C)n1 [Compound 314]: 20
CCn1nc(C(C)(C)C)cc1C(=O)Nc1cncc(C(=O)N2CC=CC2)c1 [Compound 260]: 0
C=CCN(CC=C)C(=O)c1cncc(NC(=O)c2cc(C(C)(C)C)nn2CC)c1 [Compound 262]: 20
CCNC(=O)c1ccc(F)c(NC(=O)c2cc(C(C)(C)C)nn2CC)n1 [Compound 278]: 20

Pending compound:
State the recorded Corn plant response rating for this entry: CCOC(=O)c1cccc(NC(=O)c2cc(C3(C)CC3)nn2CC)c1 [Compound 295]
20

---

We begin with a simple list: items and their reported Plant response rating, Windgrass.
System: windgrass
Assay notes: Test C postemergence herbicide test
Type: in vivo, Apera spica-venti
Experimental parameters: postemergence, 125 g ai/ha; scale 0 to 100
Kindly provide the number alone.

Take a look at these entries with their results.
CCN1N=C(C(C)(C)C)CC1C(=O)Nc1cc(C(=O)N(C)C)ccc1F (stereo not shown): 60
CCOC(=O)c1cccc(NC(=O)c2cc(C3(C)CC3)nn2CC)c1: 60
C=CCN(CC=C)C(=O)c1cccc(NC(=O)c2nn(C(C)(C)C)nc2CC)c1: 50

Turning now to a further compound:
Please state recorded Plant response rating, Windgrass (tested on windgrass) of CCCCOc1cccc(NC(=O)c2cc(C(C)(C)C)nn2CC)c1
50

---

Property: Barnyardgrass plant response rating; scope: individual molecules
System: barnyardgrass
Assay notes: Test C flooded paddy test
Type: in vivo, Echinochloa crus-galli
Experimental parameters: 125 g ai/ha, scale 0 to 100 (0 no effect, 100 complete control)
Note: the reply should be a number with no unit written.

CCNC(=O)c1cccc(NC(=O)c2nn(C(C)C)nc2CC)c1: 0

API: the following record is the query input.
Notebook entry, barnyardgrass assay: Barnyardgrass plant response rating of CCn1nc(C(C)(C)C)cc1C(=O)Nc1cc(C(=O)N(C)OC)ccc1F = ?
70

---

System: giant foxtail
Assay notes: Test B pre-/postemergence herbicide test
Assay type: in vivo, Setaria faberi
Experimental parameters: 125 g ai/ha; visual rating, scale 0 (no effect) to 100 (complete control); postemergence
Readout: Foxtail, Giant plant response rating
Please respond with just the number, no unit label.

CCN1N=C(C(C)(C)C)CC1C(=O)Nc1cc(C(=O)N2CC=CC2)ccc1F (racemic) [Compound 310]: 10
Cn1nc(C(C)(C)C)cc1C(=O)Nc1cccc(C(=O)NC2CC2)n1 [Compound 315]: 0
C#CCNC(=O)c1cccc(NC(=O)c2sc(C(C)(C)C)nc2CC)c1 [Compound 319]: 20
CCc1nn(C(C)C)nc1C(=O)Nc1cccc(C(=O)N(C)CC)c1 [Compound 386]: 20
CCc1nn(C(C)C)nc1C(=O)Nc1cccc(C(=O)N2CCCCC2)c1 [Compound 385]: 10

Consider the molecule CCc1nn(C(C)(C)CC)nc1C(=O)Nc1cccc(OC(F)(F)F)c1 [Compound 374] and give its measured Foxtail, Giant plant response rating.
20

Check C#CCNC(=O)c1cncc(NC(=O)c2cc(C(C)(C)C)nn2CC)n1 [Compound 289] too.
20

Next up: CCNC(=O)c1ccc(F)c(NC(=O)c2cc(C3(C)CC3)nn2CC)c1 [Compound 300]
30

Same thing, different molecule: C=CCNC(=O)c1cccc(NC(=O)c2nn(C(C)C)nc2CC)c1 [Compound 382]
0

Moving on to CCN(CC)C(=O)c1ccc(F)c(NC(=O)C2CC(C(C)(C)C)=NN2CC)c1 (racemic) [Compound 308]
10

Could you do the same for CCSCNC(=O)c1cccc(NC(=O)c2cc(C(C)(C)C)nn2CC)c1 [Compound 329] , please?
10

Can you check CCc1nn(C(C)(C)C)cc1C(=O)Nc1cccc(C(=O)N(C)C)n1 [Compound 292] next?
0

---

# maps each entry to its Surinam Grass plant response rating
Test system: Surinam grass
Assay notes: Test B pre-/postemergence herbicide test
Type: in vivo, Urochloa decumbens
Experimental parameters: Postemergence, 500 g ai/ha; scale 0 (no effect) to 100 (complete control)
Just the number, please, no unit attached.

Take a look at these entries with their results.
CCc1nn(C(C)(C)CC)nc1C(=O)Nc1cc(C(=O)N2CC=CC2)ccc1F [Compound 371]: 10
C=CCNC(=O)c1ccc(F)c(NC(=O)c2cc(C(C)(C)C)nn2CC)c1 [Compound 430]: 40
C=CCN(CC=C)C(=O)c1cccc(NC(=O)c2nn(C(C)(C)C)nc2CC)c1 [Compound 415]: 30

Consider the record given below.
Fill in the blank: the reported Surinam Grass plant response rating of CCN(C)C(=O)c1cccc(NC(=O)c2nn(C(C)C)nc2C)c1 [Compound 407] is ____.
20

---

Reported Surinam Grass plant response rating is given for each of the following compounds.
System: Surinam grass
Assay notes: Test B pre-/postemergence herbicide test
Format: in vivo, Urochloa decumbens
Experimental parameters: postemergence, 125 g ai/ha; visual rating, scale 0 (no effect) to 100 (complete control)
Method: […] At the same time, plants selected from these crop and weed species and also blackgrass (Alopecurus myosuroides Huds.), wheat (Triticum aestivum L.) and wild oat (Avena fatua L.) were treated with postemergence applications of test chemicals formulated in the same manner. […] Treated plants and controls were maintained in a greenhouse for 13 to 15 days, after which time all species were compared to controls and visually evaluated. […]
Just the number, please, no unit attached.

CCn1nc(C(C)(C)C)cc1C(=O)Nc1cncc(C(=O)N2CC=CC2)c1 [Compound 260]: 0
Cn1nc(C(C)(C)C)cc1C(=O)Nc1cccc(C#N)c1 [Compound 121]: 10

// query Surinam Grass plant response rating value for entry CC(C)(C)c1cc(C(=O)Nc2cccc(SC(F)(F)F)c2)n(CCF)n1 [Compound 132]
40

Okay, and CCc1nc(C(C)(C)C)sc1C(=O)Nc1cccc(C(=O)NCCF)c1 [Compound 209] ?
20

Then CCOC(=O)c1cc(NC(=O)c2cc(C(C)(C)C)nn2CC)ccc1OCC [Compound 95] ?
20

How about this compound: CCOc1cccc(NC(=O)c2cn(C(C)(C)C)nc2C)c1 [Compound 190]
10

Now consider CCn1nc(C(C)(C)C)cc1C(=O)Nc1cccc(C(=O)NCC2CC2)c1 [Compound 62] .
50

Entry CCn1nc(C(C)(C)C)cc1C(=O)Nc1cccc(C(=O)N(C)C)c1 [Compound 49] please
10
